- Read-out: Tumor necrosis factor receptor 1 (TNFRSF1A), TNFRSF1A (gene 7132)
- method: LTEA_HepaRG_TNFRSF1A: Life Technologies and Expression Analysis (LTEA) Assay for Tumor necrosis factor receptor 1 (TNFRSF1A) using HepaRG (AID 2283535)
- experimentalSetup: mRNA level, 48 h; actives raise or lower the signal
The source made the active and inactive calls. Rule for the calls: active = hit-call score of the fitted dose curve at least 0.9, where 1 is the maximum; inactive = score below 0.9.
Your reply should match one of these outcome classes. label 1 (active), label 0 (inactive)

Challenge: Identify the outcome logged in this assay for the compound shown: CC[C@H](C)[C@H]1O[C@]2(C=C[C@@H]1C)C[C@@H]1C[C@@H](C/C=C(\C)[C@@H](O[C@H]3C[C@H](OC)[C@@H](O[C@H]4C[C@H](OC)[C@@H](NC)[C@H](C)O4)[C@H](C)O3)[C@@H](C)/C=C/C=C3\CO[C@@H]4[C@H](O)C(C)=C[C@@H](C(=O)O1)[C@]34O)O2
Response given: label 1

Others:
Challenge: Identify the outcome logged in this assay for the compound shown: CSc1nnc(C(C)(C)C)c(=O)n1N
Response given: label 0

Challenge: Identify the outcome logged in this assay for the compound shown: C#CC(C)(C)NC(=O)c1cc(Cl)cc(Cl)c1
Response given: label 0

Challenge: Identify the outcome logged in this assay for the compound shown: CC(C)[C@H](C(=O)O[C@H](C#N)c1cccc(Oc2ccccc2)c1)c1ccc(Cl)cc1
Response given: label 0

Challenge: Identify the outcome logged in this assay for the compound shown: CC(Oc1cccc(Cl)c1)C(=O)O (stereo not drawn)
Response given: label 0

Challenge: Identify the outcome logged in this assay for the compound shown: CCOP(=S)(OCC)Oc1ccc2c(C)c(Cl)c(=O)oc2c1
Response given: label 0

Challenge: Identify the outcome logged in this assay for the compound shown: O=[N+]([O-])c1cc(C(F)(F)F)c(Cl)c([N+](=O)[O-])c1Nc1ncc(C(F)(F)F)cc1Cl
Response given: label 0

Challenge: Identify the outcome logged in this assay for the compound shown: CON=C(C(=O)OC)c1ccccc1CON=C(C)c1cccc(C(F)(F)F)c1
Response given: label 0

Challenge: Identify the outcome logged in this assay for the compound shown: CCCCSP(=O)(SCCCC)SCCCC
Response given: label 0

Challenge: Identify the outcome logged in this assay for the compound shown: CCOP(=S)(OCC)Oc1ccc([N+](=O)[O-])cc1
Response given: label 0

Challenge: Identify the outcome logged in this assay for the compound shown: CCOP(=S)(OCC)SCCSCC
Response given: label 0

Challenge: Identify the outcome logged in this assay for the compound shown: CNc1cnn(-c2cccc(C(F)(F)F)c2)c(=O)c1Cl
Response given: label 0

====

- Read-out: xenobiotic metabolism (CYP1A1), CYP1A1 (gene 1543)
- method: CLD_CYP1A1_48hr: CellzDirect (CLD) Gene Expression Assay for xenobiotic metabolism (CYP1A1) at 48 hours (AID 2283705)
Results filed as inconclusive are left out. Calls of active or inactive are those of the source. Rule for the calls: active = hit-call score of the fitted dose curve at least 0.9, where 1 is the maximum; inconclusive = response in the unintended direction; inactive = score below 0.9.
Your reply should match one of these outcome classes. yes (1) = active, no (0) = inactive

The examples below pair each entry with its known result.
Challenge: Identify the outcome logged in this assay for the compound shown: CC(C)N(C(=O)SCC(Cl)=C(Cl)Cl)C(C)C
Response given: no (0)

Challenge: Identify the outcome logged in this assay for the compound shown: CCc1cccc(C)c1N(C(=O)CCl)C(C)COC (centres undefined)
Response given: yes (1)

Challenge: Identify the outcome logged in this assay for the compound shown: CCCCOC(=O)[C@@H](C)Oc1ccc(Oc2ccc(C#N)cc2F)cc1
Response given: no (0)

Let's switch to this compound now.
Challenge: Identify the outcome logged in this assay for the compound shown: CCc1cnc(C2=NC(C)(C(C)C)C(=O)N2)c(C(=O)O)c1 (centres undefined)
Response given: no (0)

Values were extracted from PubChem BioAssay (EPA / NIEHS).
